Entry source: PubChem BioAssay AID1159580

Experiment: chemical genetic growth profiling, strain panel (AID 1159580);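 also: tested at 20 µM; growth read once vehicle control cultures reached saturation at 30 °C; 1 = growth at the plate median or of vehicle wells; lower values mean less growth of the strain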
Settings: S. cerevisiae deletion strains, growth OD, locus YBR231C, strain swc5
Screen size: about 5,500 compounds; about 2,000 (36%) were called active. Not shown: some 18% with an inconclusive outcome. Rule as the data show it: active = normalized growth mostly below about 0.91 (no sharp cut-off); inconclusive = no clear call, values can overlap the other calls; inactive = mostly above about 0.92. This is one part of the list.
Valid outcomes are listed here; reply with one: true (1) for active, false (0) for inactive

Example entries and their recorded answers appear below.
compound: CC(C)=CCOc1c2occc2cc2ccc(=O)oc12
group: false (0)
//
compound: CC1=C(C(=O)O)N2C(=O)[C@@H](NC(=O)[C@H](N)C3=CCC=CC3)C2SC1 (some centres not stated)
group: false (0)
//
compound: Cc1c(N(C)CS(=O)(=O)O)c(=O)n(-c2ccccc2)n1C
group: false (0)
//
compound: O=C(O)CCCN1C(=O)c2cccc3cccc(c23)C1=O
group: false (0)
//
compound: COc1c(O)cc(O)cc1O
group: false (0)

Enquiry: Kindly provide the recorded test outcome for the following compound: NCCS
Return: false (0)

Enquiry: Kindly provide the recorded test outcome for the following compound: C[C@H]1C(=O)O[C@@H]2CCN3CC=C(COC(=O)[C@](C)(O)[C@]1(C)O)[C@H]23
Return: false (0)

Enquiry: Kindly provide the recorded test outcome for the following compound: COc1cc(O)c(C(C)=O)c(OC)c1
Return: false (0)

Enquiry: Kindly provide the recorded test outcome for the following compound: CC(C)=CCC/C(C)=C/COc1ccc2ccc(=O)oc2c1
Return: false (0)

Enquiry: Kindly provide the recorded test outcome for the following compound: O=C1c2ccccc2-c2cccc3cccc1c23
Return: true (1)

Enquiry: Kindly provide the recorded test outcome for the following compound: CC(C)CCCC(C)[C@H]1CCC2C3CC[C@H]4CC(=O)CC[C@]4(C)C3CC[C@@]21C (some centres not stated)
Return: false (0)

Enquiry: Kindly provide the recorded test outcome for the following compound: CC(C)=CCC1=C(O)c2ccccc2C(=O)C1=O
Return: true (1)

====

Assay: chemical genetic growth profiling, strain panel (AID 1159580)
Details: S. cerevisiae deletion strains, growth OD, locus YLR342W, strain FKS1, stronger effect = lower value
About 2,000 (36%) of roughly 5,500 compounds were called active. Not shown: some 18% with an inconclusive outcome. The list shows a part of the results.
In this section we review reported normalized growth values for a set of compounds.

Example compounds with recorded normalized growth:
compound: C[C@]12C=CC(=O)C=C1CCC1C2C(=O)C[C@@]2(C)C1CC[C@]2(O)C(=O)CO (stereo partly specified)
normalized growth: 0.978 (inactive)

compound: CC1=C(C(=O)O)N2C(=O)[C@@H](NC(=O)[C@H](N)C3=CCC=CC3)C2SC1 (stereo partly specified)
normalized growth: 1.01 (inactive)

Continue with the compound presented below.
Enquiry: Provide normalized growth value for the following compound: CCCC(=O)Nc1ncnc2c1ncn2C1O[C@@H]2COP(=O)(O)O[C@H]2[C@H]1OC(=O)CCC (stereo partly specified)
Return: 0.992 (inactive)

====

Assay: chemical genetic growth profiling, strain panel (AID 1159580);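 also: tested at 20 µM; growth read once vehicle control cultures reached saturation at 30 °C; 1 = growth at the plate median or of vehicle wells; lower values mean less growth of the strain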
Conditions: S. cerevisiae deletion strains, growth OD, locus YNL322C, strain KRE1
The whole screen tested about 5,500 compounds, of which about 2,000 (36%) were called active. About 18% were inconclusive and are not listed. Rule as the data show it: active = normalized growth mostly below about 0.91 (no sharp cut-off); inconclusive = no clear call, values can overlap the other calls; inactive = mostly above about 0.92. Some of the results follow.
Valid outcomes are listed here; reply with one: class 1 (active), class 0 (inactive)

Example entries and their recorded answers appear below.
compound: c1ccc2c(c1)-c1cccc3cccc-2c13
group: class 1

compound: FC(F)(F)c1ccc(-n2cncn2)nc1
group: class 0

compound: NNC(=S)Nc1cc(C(F)(F)F)ccc1Cl
group: class 0

compound: COC(=O)c1cc2c(cn1)[nH]c1ccccc12
group: class 0

compound: N/C(=N/OC(=O)C(Cl)Cl)c1cccc(Cl)c1Cl
group: class 0

compound: CC(C)=CCC1=C(O)c2ccccc2C(=O)C1=O
group: class 0

compound: NNC(=S)Nc1ccc(C(F)(F)F)cc1
group: class 0

compound: O=C(CCCN1CC=C(n2c(=O)[nH]c3ccccc32)CC1)c1ccc(F)cc1
group: class 0

compound: Nn1nnc2ccccc21
group: class 0

compound: O=c1[nH]c2ccccc2n1C1CCN(CCCC(c2ccc(F)cc2)c2ccc(F)cc2)CC1
group: class 0

Enquiry: Kindly provide the recorded test outcome for the following compound: O=c1cc(-c2ccc(O)cc2)oc2cc(O[C@@H]3O[C@H](CO)[C@@H](O)[C@H](O)[C@H]3O[C@@H]3OC[C@](O)(CO)[C@H]3O)cc(O)c12
Return: class 0

Enquiry: Kindly provide the recorded test outcome for the following compound: NC(=S)Nc1cc(Cl)ccc1Cl
Return: class 0

Enquiry: Kindly provide the recorded test outcome for the following compound: N[C@@H](CCCC(=O)O)C(=O)O
Return: class 0

Enquiry: Kindly provide the recorded test outcome for the following compound: Cc1onc(-c2c(F)cccc2Cl)c1C(=O)N1CCN(c2ncccc2C(F)(F)F)CC1
Return: class 0

Enquiry: Kindly provide the recorded test outcome for the following compound: COc1cc(NC(=O)Nc2ccc(OC(F)(F)F)cc2)cc(C(F)(F)F)c1
Return: class 0

Enquiry: Kindly provide the recorded test outcome for the following compound: COc1cccc(CC(=O)NN)c1
Return: class 0

====

Assay: chemical genetic growth profiling, strain panel (AID 1159580);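 also: tested at 20 µM; growth read once vehicle control cultures reached saturation at 30 °C; 1 = growth at the plate median or of vehicle wells; lower values mean less growth of the strain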
Settings: S. cerevisiae deletion strains, growth OD, locus YHR094C, strain hxt1
In all, about 5,500 compounds went through this assay and about 2,000 (36%) were called active. Not shown: some 18% with an inconclusive outcome. Cut-off read from the data, not from the text of the source: active = normalized growth mostly below about 0.91 (no sharp cut-off); inconclusive = no clear call, values can overlap the other calls; inactive = mostly above about 0.92. Some of the results follow.
Valid outcomes are listed here; reply with one: T for active, F for inactive

Example entries and their recorded answers appear below.
molecule: COc1c(O)cc(O)cc1O
group: F

molecule: COc1cc(O)c(C(C)=O)c(OC)c1
group: F

molecule: CCC(=O)O[C@H]1CCC2C3CCc4cc(O)ccc4C3CC[C@@]21C (some centres not stated)
group: F

molecule: CCCCC(=O)N(Cc1ccc(-c2ccccc2-c2nn[nH]n2)cc1)[C@H](C(=O)O)C(C)C
group: F

Enquiry: Kindly provide the recorded test outcome for the following molecule: CN1CCN(C(c2ccccc2)c2ccccc2)CC1
Return: F

Enquiry: Kindly provide the recorded test outcome for the following molecule: COC(=O)C1=CO[C@@H](O[C@@H]2O[C@H](CO)[C@@H](O)[C@H](O)[C@H]2O)[C@@H]2[C@@H](C)[C@@H](O)C[C@H]12
Return: F

Enquiry: Kindly provide the recorded test outcome for the following molecule: CCCCCN=C(N)N/N=C\c1c[nH]c2ccc(OC)cc12
Return: F

Enquiry: Kindly provide the recorded test outcome for the following molecule: O=[N+]([O-])/N=C1/NCCN1Cc1ccc(Cl)cc1
Return: F

Enquiry: Kindly provide the recorded test outcome for the following molecule: Cn1c([N+](=O)[O-])cnc1COC(N)=O
Return: F

Enquiry: Kindly provide the recorded test outcome for the following molecule: CC(=O)Oc1ccc2c(c1)CCC1C2CC[C@@]2(C)C1CC[C@@H]2OC(C)=O (some centres not stated)
Return: F

Enquiry: Kindly provide the recorded test outcome for the following molecule: CCN(CC)CCNC(=O)COc1ccc(OC)cc1
Return: F

Enquiry: Kindly provide the recorded test outcome for the following molecule: CC1=C2[C@](C)(C=CC1=O)C[C@H](O)[C@H]1[C@H](C)C(=O)O[C@]21C
Return: F

====

In this section we review reported normalized growth values for a set of molecules.
Test: chemical genetic growth profiling, strain panel (AID 1159580);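 also: tested at 20 µM; growth read once vehicle control cultures reached saturation at 30 °C; 1 = growth at the plate median or of vehicle wells; lower values mean less growth of the strain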
Details: S. cerevisiae deletion strains, growth OD, locus YOL012C, strain htz1
Out of some 5,500 compounds screened, about 2,000 (36%) were called active. Inconclusive results (about 18%) are left out. Some of the results follow.
Write no unit; give the number alone.

molecule: COc1cc2c(cc1-c1coc3c4c(c(OC)cc3c1=O)OC(C)(C)C=C4)OCO2
observed_property: normalized growth
observed_value: 0.696

molecule: CCOC(=O)C1=C(C)NC(C)=C(C(=O)OC)C1c1cccc([N+](=O)[O-])c1 (stereo unspecified)
observed_property: normalized growth
observed_value: 0.79

molecule: COc1ccc2c(=O)c(CC(=O)O)coc2c1
observed_property: normalized growth
observed_value: 1.05

Enquiry: Provide normalized growth value for the following molecule: O=c1c(-c2ccc3c(c2)OCO3)coc2cc(O)ccc12
Return: 1.06

Enquiry: Provide normalized growth value for the following molecule: Cn1cnc([N+](=O)[O-])c1Sc1ncnc2nc[nH]c12
Return: 1.34

Enquiry: Provide normalized growth value for the following molecule: O=C(O)c1cc2cc(Cl)ccc2[nH]1
Return: 0.817

Enquiry: Provide normalized growth value for the following molecule: COc1c2c(cc3occ(-c4ccc5c(c4)OCO5)c(=O)c13)OC(C)(C)C=C2
Return: 1.17

Enquiry: Provide normalized growth value for the following molecule: COc1cc(O)c(C)c(O)c1
Return: 0.903

Enquiry: Provide normalized growth value for the following molecule: COc1ccc2c(=O)c(-c3cc4c(cc3OC)OCO4)coc2c1
Return: 1.12

Enquiry: Provide normalized growth value for the following molecule: CC(C)=CCc1c(O)cc2occ(-c3ccc4c(c3)OCO4)c(=O)c2c1O
Return: 0.966

Enquiry: Provide normalized growth value for the following molecule: N#C/C(=C\c1ccc(O)cc1)C(=O)O
Return: 1.16
